assay: physchem; conditions: FaSSIF pH 6.5 + 1% PVPVA, pH 6.5, aqueous with cosolvent or surfactant or cyclodextrin, thermodynamic from solid
observed property: solubility kinetic at 30 min

compound	observed property	result
FC(F)(F)Oc1ccc(Nc2ccc3cccc(Cl)c3n2)cc1 [ABX464 crystalline Form I]	solubility kinetic at 30 min	22 µg/mL

###

experiment: physchem; conditions: FeSSIF pH 5 + 1% PVPVA, pH 5, aqueous with cosolvent or surfactant or cyclodextrin, thermodynamic from solid
observed property: solubility kinetic at 24 h (µg/mL)

molecule	observed property	recorded number
FC(F)(F)Oc1ccc(Nc2ccc3cccc(Cl)c3n2)cc1 [ABX464 crystalline Form I]	solubility kinetic at 24 h	419
